Tested on: L1210 leukemia ip in BDF1 mice, survival T/C
Assay: NCI In Vivo Anticancer Drug Screen. Data for tumor model L1210 Leukemia (intraperitoneal) in B6D2F1 (BDF1) mice
Settings: endpoint: mean survival time; dose: 100.0 mg/kg/injection; schedule: Q01DX001 (ip); vehicle: other; higher = longer survival
Toxic doses and inconclusive results are not listed.
Readout Name: T/C

compound=O=C1c2cc(Br)ccc2-c2c(N=Cc3ccc4c(c3)OCO4)cc(Br)cc21 assay_system="L1210 leukemia ip in BDF1 mice, survival T/C" measured_value="95 % of control"
compound=CCN(CC)C(=O)O/N=C(/C)c1ccccc1 assay_system="L1210 leukemia ip in BDF1 mice, survival T/C" measured_value="96 % of control"
compound="COc1cc2c(cc1OC)C(C(N)=O)NCC2 (stereo not given)" assay_system="L1210 leukemia ip in BDF1 mice, survival T/C" measured_value="101 % of control"
compound=c1ccc(C2=NNC(c3ccccc3)(c3ccccc3)c3ccccc32)cc1 assay_system="L1210 leukemia ip in BDF1 mice, survival T/C" measured_value="96 % of control"
compound=Cc1c(Cl)c(C)c(Sc2c(C)c(Cl)c(C)c(Br)c2O)c(O)c1Br assay_system="L1210 leukemia ip in BDF1 mice, survival T/C" measured_value="87 % of control"
